Target: T1, human Nectin-4 extracellular antigen hNectin-4-His (human, UniProt Q96NY8 32-349)
T1 construct: C-terminal 8xHis tag included
T1 sequence: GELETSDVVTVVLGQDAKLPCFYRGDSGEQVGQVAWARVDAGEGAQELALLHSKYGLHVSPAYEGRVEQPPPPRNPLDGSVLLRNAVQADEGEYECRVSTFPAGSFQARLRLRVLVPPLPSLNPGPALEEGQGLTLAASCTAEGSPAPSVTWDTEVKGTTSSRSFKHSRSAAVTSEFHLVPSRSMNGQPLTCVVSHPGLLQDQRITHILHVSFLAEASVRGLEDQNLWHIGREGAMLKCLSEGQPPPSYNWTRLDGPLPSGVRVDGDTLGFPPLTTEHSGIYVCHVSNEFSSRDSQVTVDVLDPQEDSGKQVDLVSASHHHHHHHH
Experiment: SPR, antibody on Protein A chip, 1:1 fit
measurement.label: Kd

- binder: "antibody 1F3-1H3 (antibody, human IgG1, kappa, V domains shown) VH: EVQLVESGGGLVQPGGSLRLSCAASGFNFYNYGMSWVRQAPGKGLEWVSGIKPHSDVAHYADSVKGRFTISRDNSKNTLYLQMNSLRAEDTAVYYCARAELLAFDVYTASDYWGQGTLVTVSS VL: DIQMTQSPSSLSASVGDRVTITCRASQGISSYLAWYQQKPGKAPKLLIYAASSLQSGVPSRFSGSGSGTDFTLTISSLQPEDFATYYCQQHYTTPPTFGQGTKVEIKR"
  measurement.label: "Kd"
  reported: "0.62 nM"
- binder: "antibody 10F4-1G7 (antibody, human IgG1, kappa, V domains shown) VH: EVQLVESGGGLVQPGGSLRLSCAASGYNFGDYDMSWVRQAPGKGLEWVSSIIGHGDTKFYADSVKGRFTISRDNSKNTLYLQMNSLRAEDTAVYYCAREYSDVVDYVSVRTPLDYWGQGTLVTVSS VL: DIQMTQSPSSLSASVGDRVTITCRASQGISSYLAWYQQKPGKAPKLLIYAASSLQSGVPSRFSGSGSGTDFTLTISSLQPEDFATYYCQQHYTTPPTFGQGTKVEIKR"
  measurement.label: "Kd"
  reported: "0.374 nM"
- binder: "antibody 10F4-1F8 (antibody, human IgG1, kappa, V domains shown) VH: EVQLVESGGGLVQPGGSLRLSCAASGYTFTDYDMSWVRQAPGKGLEWVSSIITDGGGAFYADSVKGRFTISRDNSKNTLYLQMNSLRAEDTAVYYCAREYSDVVDYVSVRTPLDYWGQGTLVTVSS VL: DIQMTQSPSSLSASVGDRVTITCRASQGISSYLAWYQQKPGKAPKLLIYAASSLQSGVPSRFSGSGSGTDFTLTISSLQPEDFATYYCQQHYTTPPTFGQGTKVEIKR"
  measurement.label: "Kd"
  reported: "0.558 nM"
- binder: "antibody 1G8-1G3 (antibody, human IgG1, kappa, V domains shown) VH: EVQLVESGGGLVQPGGSLRLSCAASGFNFGTYAMSWVRQAPGKGLEWVSRISGISAGTNYADSVKGRFTISRDNSKNTLYLQMNSLRAEDTAVYYCARQTEDRSYGYDLDYWGQGTLVTVSS VL: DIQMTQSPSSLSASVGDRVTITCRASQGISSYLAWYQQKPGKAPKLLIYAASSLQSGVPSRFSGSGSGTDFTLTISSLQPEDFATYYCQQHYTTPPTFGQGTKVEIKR"
  measurement.label: "Kd"
  reported: "3 nM"

Data provenance is patent US20260144882A1.
